Measured values drawn from the supplement of paper PMC9112550 for this set.

- Tested on: Escherichia coli TOP10
- assay-overview: shrunken log2 fold change of peptide-encoding DNA abundance (4.5 h post-induction vs induction); higher = less antimicrobial activity (less host growth inhibition)
- run-conditions: time post-induction: 4.5 h; library: site-saturation at positions 5, 18, 19, 20
Hi, to clarify the labels: true (1) covers shrunken log2 fold change from -0.1 upward, false (0) covers anything below -0.1.

Does the reported shrunken log2 fold change for RRIRCRPPRLPRPRPRPTELPRP fall at or above the -0.1 mark?
false (0)

Does the reported shrunken log2 fold change for RRIRARPPRLPRPRPRPHSGPRP fall at or above the -0.1 mark?
true (1)

Does the reported shrunken log2 fold change for RRIRRRPPRLPRPRPRPIYPPRP fall at or above the -0.1 mark?
false (0)

Does the reported shrunken log2 fold change for RRIRRRPPRLPRPRPRPQHSPRP fall at or above the -0.1 mark?
true (1)

Does the reported shrunken log2 fold change for RRIRKRPPRLPRPRPRPDYCPRP fall at or above the -0.1 mark?
true (1)

Does the reported shrunken log2 fold change for RRIRSRPPRLPRPRPRPCNAPRP fall at or above the -0.1 mark?
true (1)

Does the reported shrunken log2 fold change for RRIRTRPPRLPRPRPRPAIFPRP fall at or above the -0.1 mark?
true (1)

Does the reported shrunken log2 fold change for RRIRNRPPRLPRPRPRPNNIPRP fall at or above the -0.1 mark?
false (0)

----------
- Test system: Escherichia coli TOP10
- assay-overview: shrunken log2 fold change of peptide-encoding DNA abundance (4.5 h post-induction vs induction); higher = less antimicrobial activity (less host growth inhibition)
- run-conditions: time post-induction: 4.5 h; library: site-saturation at positions 5, 18, 19, 20
outcome-measure: shrunken log2 fold change
The response must contain the number and no unit.

Report measured shrunken log2 fold change; entry is RRIRNRPPRLPRPRPRPMNCPRP
-0.57

Report measured shrunken log2 fold change; entry is RRIRARPPRLPRPRPRPTLTPRP
1.08

Report measured shrunken log2 fold change; entry is RRIRQRPPRLPRPRPRPRVGPRP
0.71

Report measured shrunken log2 fold change; entry is RRIRGRPPRLPRPRPRPEVSPRP
0.372

Report measured shrunken log2 fold change; entry is RRIRMRPPRLPRPRPRPEDDPRP
-0.01

Report measured shrunken log2 fold change; entry is RRIRYRPPRLPRPRPRPPYTPRP
-0.94

Report measured shrunken log2 fold change; entry is RRIRWRPPRLPRPRPRPPVMPRP
0.00935

Report measured shrunken log2 fold change; entry is RRIRARPPRLPRPRPRPHMMPRP
-0.12

Report measured shrunken log2 fold change; entry is RRIRDRPPRLPRPRPRPIHFPRP
-0.0728

Report measured shrunken log2 fold change; entry is RRIRMRPPRLPRPRPRPMIYPRP
-0.178

Report measured shrunken log2 fold change; entry is RRIRRRPPRLPRPRPRPMLWPRP
-0.0161

Report measured shrunken log2 fold change; entry is RRIRQRPPRLPRPRPRPYENPRP
0.00377

Report measured shrunken log2 fold change; entry is RRIRTRPPRLPRPRPRPSAMPRP
-0.0978

Report measured shrunken log2 fold change; entry is RRIRIRPPRLPRPRPRPLKLPRP
-0.838

Report measured shrunken log2 fold change; entry is RRIRDRPPRLPRPRPRPENFPRP
0.043

----------
I'd be grateful if you could share measured shrunken log2 fold change for these entries.
- Test system: Escherichia coli TOP10
- assay-overview: shrunken log2 fold change of peptide-encoding DNA abundance (4.5 h post-induction vs induction); higher = less antimicrobial activity (less host growth inhibition)
- run-conditions: time post-induction: 4.5 h; library: site-saturation at positions 5, 18, 19, 20

Report measured shrunken log2 fold change; entry is RRIRMRPPRLPRPRPRPRQDPRP
0.271

Report measured shrunken log2 fold change; entry is RRIRFRPPRLPRPRPRPIHMPRP
-0.491

Report measured shrunken log2 fold change; entry is RRIRYRPPRLPRPRPRPIVHPRP
-2.04

Report measured shrunken log2 fold change; entry is RRIRRRPPRLPRPRPRPYSWPRP
-0.275

Report measured shrunken log2 fold change; entry is RRIRIRPPRLPRPRPRPKSPPRP
-0.0939

Report measured shrunken log2 fold change; entry is RRIRCRPPRLPRPRPRPSEEPRP
-0.0443

Report measured shrunken log2 fold change; entry is RRIRMRPPRLPRPRPRPPMWPRP
-0.0434

Report measured shrunken log2 fold change; entry is RRIRLRPPRLPRPRPRPFLFPRP
-0.34

----------
I'd be grateful if you could share measured shrunken log2 fold change for these entries.
- Test system: Escherichia coli TOP10
- assay-overview: shrunken log2 fold change of peptide-encoding DNA abundance (4.5 h post-induction vs induction); higher = less antimicrobial activity (less host growth inhibition)
- run-conditions: time post-induction: 4.5 h; library: site-saturation at positions 5, 18, 19, 20
The response must contain the number and no unit.

Report measured shrunken log2 fold change; entry is RRIRRRPPRLPRPRPRPQWYPRP
-0.258

Report measured shrunken log2 fold change; entry is RRIRARPPRLPRPRPRPHWNPRP
-0.0187

Report measured shrunken log2 fold change; entry is RRIRMRPPRLPRPRPRPICYPRP
-0.119

Report measured shrunken log2 fold change; entry is RRIRNRPPRLPRPRPRPEFQPRP
-0.00325

Report measured shrunken log2 fold change; entry is RRIRIRPPRLPRPRPRPSPRPRP
-0.0771

Report measured shrunken log2 fold change; entry is RRIRRRPPRLPRPRPRPEYQPRP
0.119

Report measured shrunken log2 fold change; entry is RRIRTRPPRLPRPRPRPWGPPRP
-0.0265

Report measured shrunken log2 fold change; entry is RRIRFRPPRLPRPRPRPPRKPRP
0.827

Report measured shrunken log2 fold change; entry is RRIRCRPPRLPRPRPRPTRTPRP
0.406

Report measured shrunken log2 fold change; entry is RRIRYRPPRLPRPRPRPIPHPRP
0.046

Report measured shrunken log2 fold change; entry is RRIRHRPPRLPRPRPRPTPVPRP
0.137

Report measured shrunken log2 fold change; entry is RRIRVRPPRLPRPRPRPGYKPRP
-0.222

Report measured shrunken log2 fold change; entry is RRIRTRPPRLPRPRPRPGLFPRP
0.458

Report measured shrunken log2 fold change; entry is RRIRNRPPRLPRPRPRPWSMPRP
-0.0638

Report measured shrunken log2 fold change; entry is RRIRWRPPRLPRPRPRPIWDPRP
0.214

Report measured shrunken log2 fold change; entry is RRIRMRPPRLPRPRPRPNHWPRP
0.14

Report measured shrunken log2 fold change; entry is RRIRIRPPRLPRPRPRPTCPPRP
0.00857

Report measured shrunken log2 fold change; entry is RRIRSRPPRLPRPRPRPLENPRP
-0.0294

Report measured shrunken log2 fold change; entry is RRIRPRPPRLPRPRPRPGWKPRP
0.269

Report measured shrunken log2 fold change; entry is RRIRPRPPRLPRPRPRPFQVPRP
-0.0122

Report measured shrunken log2 fold change; entry is RRIRYRPPRLPRPRPRPDKKPRP
-0.0333

Report measured shrunken log2 fold change; entry is RRIRHRPPRLPRPRPRPNMEPRP
-0.0709

Report measured shrunken log2 fold change; entry is RRIRKRPPRLPRPRPRPVIQPRP
-0.0501

Report measured shrunken log2 fold change; entry is RRIRTRPPRLPRPRPRPYCCPRP
-0.364

Report measured shrunken log2 fold change; entry is RRIRNRPPRLPRPRPRPHKMPRP
-0.634

Report measured shrunken log2 fold change; entry is RRIRHRPPRLPRPRPRPFYWPRP
-0.0655

Report measured shrunken log2 fold change; entry is RRIRPRPPRLPRPRPRPCKQPRP
-0.0806

Report measured shrunken log2 fold change; entry is RRIRQRPPRLPRPRPRPETTPRP
0.0178

Report measured shrunken log2 fold change; entry is RRIRFRPPRLPRPRPRPILQPRP
-0.0746

Report measured shrunken log2 fold change; entry is RRIRARPPRLPRPRPRPSCRPRP
0.248

Report measured shrunken log2 fold change; entry is RRIRERPPRLPRPRPRPDVQPRP
-0.0408

Report measured shrunken log2 fold change; entry is RRIRCRPPRLPRPRPRPYGFPRP
-0.515

----------
- Tested on: Escherichia coli TOP10;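 further: peptides expressed intracellularly from a pBAD plasmid library in pooled LB shake-flask culture, induced with 0.3% L-arabinose, DNA abundance read by NGS, three biological replicates, DESeq2 with apeglm shrinkage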
- assay-overview: shrunken log2 fold change of peptide-encoding DNA abundance (4.5 h post-induction vs induction); higher = less antimicrobial activity (less host growth inhibition)
- run-conditions: time post-induction: 4.5 h; library: site-saturation at positions 5, 18, 19, 20
I'd be grateful if you could share measured shrunken log2 fold change for these entries.

Report measured shrunken log2 fold change; entry is RRIRTRPPRLPRPRPRPLAVPRP
-0.0185

Report measured shrunken log2 fold change; entry is RRIRPRPPRLPRPRPRPINWPRP
-0.241

Report measured shrunken log2 fold change; entry is RRIRQRPPRLPRPRPRPHQDPRP
-0.327

Report measured shrunken log2 fold change; entry is RRIRIRPPRLPRPRPRPTVGPRP
0.152

Report measured shrunken log2 fold change; entry is RRIRWRPPRLPRPRPRPNFKPRP
-0.264

Report measured shrunken log2 fold change; entry is RRIRRRPPRLPRPRPRPDPEPRP
0.307

Report measured shrunken log2 fold change; entry is RRIRYRPPRLPRPRPRPCHFPRP
-0.0527

Report measured shrunken log2 fold change; entry is RRIRNRPPRLPRPRPRPHRPPRP
0.128

Report measured shrunken log2 fold change; entry is RRIRARPPRLPRPRPRPDRSPRP
-0.0282

Report measured shrunken log2 fold change; entry is RRIRLRPPRLPRPRPRPRKAPRP
0.022

Report measured shrunken log2 fold change; entry is RRIRRRPPRLPRPRPRPKDRPRP
0.09

Report measured shrunken log2 fold change; entry is RRIRVRPPRLPRPRPRPVRRPRP
2.95

Report measured shrunken log2 fold change; entry is RRIRCRPPRLPRPRPRPFRQPRP
-0.0498

Report measured shrunken log2 fold change; entry is RRIRYRPPRLPRPRPRPLIMPRP
-0.0566

Report measured shrunken log2 fold change; entry is RRIRWRPPRLPRPRPRPYPYPRP
0.0754
